Provide the reported IC50 of each item.
molecular target: Serine protease 1 (Homo sapiens, UniProt P07477); experiment: In vitro for inhibition of serine protease Trypsin.
Sequence (P07477 whole entry): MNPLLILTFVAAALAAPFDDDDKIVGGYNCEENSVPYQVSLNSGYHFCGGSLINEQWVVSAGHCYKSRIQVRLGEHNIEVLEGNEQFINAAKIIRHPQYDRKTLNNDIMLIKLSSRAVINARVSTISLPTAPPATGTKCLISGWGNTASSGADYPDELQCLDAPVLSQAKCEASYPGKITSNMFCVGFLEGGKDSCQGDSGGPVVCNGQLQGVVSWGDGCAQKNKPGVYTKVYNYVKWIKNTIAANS
Answers are plain numbers, in nM.

Would you please look over these solved cases?
>>> df
                                   molecule  reported_value
0  COC(=O)c1ccccc1CS(=O)(=O)N[C@H]1CCCCN(CC(=O)N[C@H]2CCCC(C(=N)N)C2O)C1=O (some centres undefined)             137
1  N=C(N)C1CCC[C@H](NC(=O)CN2CCCC[C@H](NS(=O)(=O)Cc3ccccc3)C2=O)C1O (some centres undefined)            74.5

Required: IC50, one value per molecule below.
1. CC(C)(C)OC(=O)N[C@H]1CCCN(CC(=O)N[C@H]2CCCC(C(=N)N)C2O)C1=O (some centres undefined)
2. N=C(N)C1CCC[C@H](NC(=O)CN2CCCC[C@H](NS(=O)(=O)c3ccccc3)C2=O)C1O (some centres undefined)

### Response
1. 16800
2. 16.6

----------
Provide the reported IC50 of each item.
biological target: Prothrombin (Homo sapiens); assay: In vitro for inhibition of serine protease thrombin(FIIa).

Would you please look over these solved cases?
In [3]: df
Out[3]:
                                   compound  reported_value
0  N=C(N)C1CCC[C@H](NC(=O)CN2CCC[C@@H](NS(=O)(=O)Cc3ccccc3)C2=O)C1O (stereo not given in full)          157 nM
1  N=C(N)C1CCC[C@H](NC(=O)CN2CCC[C@H](NS(=O)(=O)c3ccccc3)C2=O)C1O (stereo not given in full)          159 nM
2  N=C(N)C1CCC[C@H](NC(=O)CN2CCC[C@H](NS(=O)(=O)CCc3ccccc3)C2=O)C1O (stereo not given in full)          420 nM
3  COC(=O)c1ccccc1CS(=O)(=O)N[C@H]1CCCCN(CC(=O)N[C@H]2CCCC(C(=N)N)C2O)C1=O (stereo not given in full)         1.12 nM
4  N=C(N)C1CCC[C@H](NC(=O)CN2CCCC[C@H](NS(=O)(=O)Cc3ccccc3)C2=O)C1O (stereo not given in full)         0.71 nM
5  N=C(N)C1CCC[C@H](NC(=O)CN2CCC[C@H](NS(=O)(=O)Cc3ccccc3)C2=O)C1O (stereo not given in full)          6.2 nM
6  N=C(N)C1CCC[C@H](NC(=O)CN2CCC[C@H](NS(=O)(=O)NC3CCCCC3)C2=O)C1O (stereo not given in full)          235 nM
7  CN[C@H](Cc1ccccc1)C(=O)N1CCC[C@@H]1C(=O)N[C@H]1CCCC(C(=N)N)C1O (stereo not given in full)          0.7 nM

Required: IC50, one value per compound below.
1. CCCC(CCC)C(=O)N[C@@H](CC(=O)OC)C(=O)N1CCC[C@@H]1C(=O)N[C@H]1CCCC(C(=N)N)C1O (stereo not given in full)
2. CC(C(=O)N[C@H]1CCCC(C(=N)N)C1O)N1CCC[C@H](NS(=O)(=O)Cc2ccccc2)C1=O (stereo not given in full)
3. N=C(N)C1CCC[C@H](NC(=O)CN2CCC[C@H](NC(=O)Cc3ccccc3)C2=O)C1O (stereo not given in full)

### Response
1. 1.1 nM
2. 286 nM
3. 2500 nM

----------
target: Prothrombin (Homo sapiens); experiment: compound was tested in vitro for inhibition of serine protease thrombin(FIIa).
ENDPOINT: IC50 (nM)
Numbers only, in nM.

### Prompt So what IC50 did N=C(N)C1CCCC(NC(=O)CN2CC[C@H](NS(=O)(=O)Cc3ccccc3)C2=O)C1O (stereo partly specified) get with Prothrombin (Homo sapiens)?
### Response 125

----------
biological target: Serine protease 1 (Homo sapiens); test: In vitro for inhibition of serine protease Trypsin.
ENDPOINT: pIC50
One number for each entry, as −log10 of the molar value.

Would you please look over these solved cases?
                                   molecule                       test_system  reported_value
0  CCCC(CCC)C(=O)N[C@@H](CC(=O)OC)C(=O)N1CCC[C@@H]1C(=O)N[C@H]1CCCC(C(=N)N)C1O (stereo partly drawn)  Serine protease 1 (Homo sapiens)            8.87
1  N=C(N)C1CCC[C@H](NC(=O)CN2CCC[C@H](NS(=O)(=O)c3ccccc3)C2=O)C1O (stereo partly drawn)  Serine protease 1 (Homo sapiens)            6.11
2  N=C(N)C1CCC[C@H](NC(=O)CN2CCC[C@H](NS(=O)(=O)Cc3ccccc3)C2=O)C1O (stereo partly drawn)  Serine protease 1 (Homo sapiens)            6.10
3  N=C(N)C1CCC[C@H](NC(=O)CN2CCC[C@@H](NS(=O)(=O)Cc3ccccc3)C2=O)C1O (stereo partly drawn)  Serine protease 1 (Homo sapiens)            6.33
4  N=C(N)C1CCC[C@H](NC(=O)CN2CCC[C@H](NS(=O)(=O)NC3CCCCC3)C2=O)C1O (stereo partly drawn)  Serine protease 1 (Homo sapiens)            6.83
5  N=C(N)C1CCC[C@H](NC(=O)CN2CCC[C@H](NS(=O)(=O)CCc3ccccc3)C2=O)C1O (stereo partly drawn)  Serine protease 1 (Homo sapiens)            5.60

### Prompt So what pIC50 did CN[C@H](Cc1ccccc1)C(=O)N1CCC[C@@H]1C(=O)N[C@H]1CCCC(C(=N)N)C1O (stereo partly drawn) get with Serine protease 1 (Homo sapiens)?
### Response 8.82

----------
Notes on pIC50 obtained with Coagulation factor X (Homo sapiens, UniProt P00742).
Sequence (P00742 41-179 limits assumed): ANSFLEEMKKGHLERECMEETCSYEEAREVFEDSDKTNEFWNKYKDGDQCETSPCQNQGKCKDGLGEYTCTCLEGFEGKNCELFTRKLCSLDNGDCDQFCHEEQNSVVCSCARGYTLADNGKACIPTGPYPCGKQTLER
Sequence (P00742 235-488 limits assumed): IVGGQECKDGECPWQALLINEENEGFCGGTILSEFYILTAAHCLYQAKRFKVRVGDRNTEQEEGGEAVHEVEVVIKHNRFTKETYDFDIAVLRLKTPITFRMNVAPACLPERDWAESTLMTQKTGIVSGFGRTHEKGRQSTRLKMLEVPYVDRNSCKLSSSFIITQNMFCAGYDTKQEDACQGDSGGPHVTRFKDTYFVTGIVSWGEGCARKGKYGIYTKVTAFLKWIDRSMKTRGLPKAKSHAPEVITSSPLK
One number for each entry, as −log10 of the molar value.

Required: pIC50, one value per compound below.
1. N=C(N)C1CCC[C@H](NC(=O)CN2CCCC[C@H](NS(=O)(=O)c3ccccc3)C2=O)C1O (stereo partly drawn)
2. N=C(N)C1CCC[C@H](NC(=O)CN2CCCC[C@H](NS(=O)(=O)Cc3ccccc3)C2=O)C1O (stereo partly drawn)
3. N=C(N)C1CCC[C@H](NC(=O)CN2CCC[C@H](NS(=O)(=O)c3ccccc3)C2=O)C1O (stereo partly drawn)
4. N=C(N)C1CCC[C@H](NC(=O)CN2CCC[C@@H](NS(=O)(=O)Cc3ccccc3)C2=O)C1O (stereo partly drawn)
5. N=C(N)C1CCC[C@H](NC(=O)CN2CCC[C@H](NS(=O)(=O)NC3CCCCC3)C2=O)C1O (stereo partly drawn)

### Response
1: 6.32; 2: 7.69; 3: 5.96; 4: 5.60; 5: 5.71

Required: pIC50, one value per compound below.
1. CC(C(=O)N[C@H]1CCCC(C(=N)N)C1O)N1CCC[C@H](NS(=O)(=O)Cc2ccccc2)C1=O (stereo partly drawn)
2. CCCCS(=O)(=O)N[C@H]1CCCN(CC(=O)N[C@H]2CCCC(C(=N)N)C2O)C1=O (stereo partly drawn)
3. N=C(N)C1CCC[C@H](NC(=O)CN2CCC[C@H](NS(=O)(=O)Cc3ccccc3)C2=O)C1O (stereo partly drawn)

### Response
1: 5.60; 2: 5.60; 3: 5.60

----------
biological target: Coagulation factor X (Homo sapiens); test: compound was tested in vitro for inhibition of Coagulation factor X
ENDPOINT: pIC50
Numbers only, as −log10 of the molar value.

### Prompt // returns reported pIC50 for input N=C(N)C1CCCC(NC(=O)CN2CC[C@H](NS(=O)(=O)Cc3ccccc3)C2=O)C1O (stereo partly specified)
### Response 5.60

----------
Provide the reported IC50 of each item.
target: Coagulation factor X (Homo sapiens, UniProt P00742)
Answers are plain numbers, in µM.

>>> print(df.to_string())
                                   compound  endpoint  reported_value
0  COC(=O)c1ccccc1CS(=O)(=O)N[C@H]1CCCCN(CC(=O)N[C@H]2CCCC(C(=N)N)C2O)C1=O (stereo not given in full)      IC50           0.471
1  N=C(N)C1CCC[C@H](NC(=O)CN2CCC[C@H](NS(=O)(=O)c3cccc4ccccc34)C2=O)[C@@H]1O (stereo not given in full)      IC50             2.5
2  N=C(N)C1CCC[C@H](NC(=O)CN2CCC[C@H](NS(=O)(=O)CCc3ccccc3)C2=O)C1O (stereo not given in full)      IC50             2.5

Alright, here's another compound for you.
### Prompt // returns reported IC50 for input CC(C)(C)OC(=O)N[C@H]1CCCN(CC(=O)N[C@H]2CCCC(C(=N)N)C2O)C1=O (stereo not given in full)
### Response 2.5

----------
target: Prothrombin (Homo sapiens); experiment: In vitro for inhibition of serine protease thrombin(FIIa).
Provide the reported IC50 of each item.
Answers are plain numbers, in nM.

Would you please look over these solved cases?
In [3]: df
Out[3]:
                                   compound  output_unit  reported_value
0  N=C(N)C1CCC[C@H](NC(=O)CN2CCCC[C@H](NS(=O)(=O)c3ccccc3)C2=O)C1O (some centres undefined)           nM            14.2
1  CCCCS(=O)(=O)N[C@H]1CCCN(CC(=O)N[C@H]2CCCC(C(=N)N)C2O)C1=O (some centres undefined)           nM             709

### Prompt // returns reported IC50 for input N=C(N)C1CCC[C@H](NC(=O)CN2CCC[C@H](NS(=O)(=O)c3cccc4ccccc34)C2=O)[C@@H]1O (some centres undefined)
### Response 111

Cited source: ChEMBL document CHEMBL1129392
